# target.or.test.system: ERG (Homo sapiens)
# Construct: cDNAs encoding full-length ERG and GUS were cloned into pDEST10 vector; His; made in house; host or cells: SF9 insect cells (Bac-to-Bac baculovirus)
# Sequence (P11308 whole entry, looked up): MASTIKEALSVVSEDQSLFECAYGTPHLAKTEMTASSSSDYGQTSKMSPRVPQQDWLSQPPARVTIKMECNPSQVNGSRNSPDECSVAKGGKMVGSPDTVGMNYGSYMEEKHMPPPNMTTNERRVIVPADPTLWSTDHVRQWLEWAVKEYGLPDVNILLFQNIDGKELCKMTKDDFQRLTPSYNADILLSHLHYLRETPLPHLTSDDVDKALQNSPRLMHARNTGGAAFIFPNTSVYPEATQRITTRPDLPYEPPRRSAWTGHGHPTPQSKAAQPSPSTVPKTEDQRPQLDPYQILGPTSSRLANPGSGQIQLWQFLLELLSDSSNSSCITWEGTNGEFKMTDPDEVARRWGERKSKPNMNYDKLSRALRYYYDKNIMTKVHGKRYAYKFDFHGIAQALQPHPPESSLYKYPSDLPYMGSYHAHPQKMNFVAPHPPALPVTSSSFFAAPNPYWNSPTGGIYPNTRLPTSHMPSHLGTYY
# experiment: Kd[μM]
measure: pKd
Please note pKd is a logarithmic value: minus log10 of concentration in mol/L. Answer with that number alone.

pKd recorded for this substance, H-PPYLFT-NH2 [6PT-N, H2N- PPYLFT -NH2] , is 4.94
